test: Drug level in rat brain at 1 mg/kg, po dosed for 6 consecutive days; format: ADME, organism-based; set-up: dose 1 mg/kg, route oral; details: read-out: Drug uptake
measured_endpoint: concentration at 6 days (ng/mL)
Answer format: numeric, ng/mL implied, no suffix.

# lookup: concentration at 6 days of CC(C)Oc1ccc(COc2ccc3c(c2)c(Cl)c2n3CC[C@@H]2CC(=O)O)cc1C(F)(F)F
568

###

This section presents compounds with their documented pEC50 values.
molecular target: Sphingosine 1-phosphate receptor 1 (Macaca mulatta); assay: Agonist activity at monkey S1P1 receptor assessed as cAMP accumulation by HTRF assay
Sequence (H9EUW9 whole entry): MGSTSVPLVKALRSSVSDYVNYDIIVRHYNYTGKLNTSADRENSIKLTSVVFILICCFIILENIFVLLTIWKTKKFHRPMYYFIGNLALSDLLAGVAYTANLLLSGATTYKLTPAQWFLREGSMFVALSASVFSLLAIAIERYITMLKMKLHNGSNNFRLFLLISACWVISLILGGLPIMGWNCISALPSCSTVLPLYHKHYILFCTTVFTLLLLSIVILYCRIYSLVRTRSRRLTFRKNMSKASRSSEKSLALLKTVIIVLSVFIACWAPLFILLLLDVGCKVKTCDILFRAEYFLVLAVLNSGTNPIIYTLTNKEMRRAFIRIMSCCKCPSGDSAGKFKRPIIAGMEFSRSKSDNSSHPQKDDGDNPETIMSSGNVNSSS
pEC50 is defined as minus the log10 of a concentration measured in mol/L.

Dear colleague, I am looking for the recorded pEC50 of the following compound: CC(C)Oc1ccc(COc2ccc3c(c2)c(Cl)c2n3CC[C@@H]2CC(=O)O)cc1C#N
10.42

Lab note: next compound to report on.
Fill in: pEC50 of CC(C)Oc1ccc(COc2ccc3c(c2)c(Cl)c2n3CC[C@@H]2CC(=O)O)cc1C(F)(F)F is ___
10.24

###

test: Cmax rat at 1000 mg/kg, po; format: ADME, organism-based; design: dose 1000 mg/kg, route oral; settings: in vivo
measured_endpoint: Cmax (µg/mL)
Kindly answer with a numeric value in µg/mL, unit omitted.

Look up Cmax for this compound: CC(C)Oc1ccc(COc2ccc3c(c2)c(Cl)c2n3CC[C@@H]2CC(=O)O)cc1C(F)(F)F
72.2

###

assay: Ratio of drug level in rat brain to plasma at 1 mg/kg, po dosed for 6 consecutive days; type: ADME, organism-based; parameters: dose 1 mg/kg, route oral; settings: read-out: BPR
measured_endpoint: Kp at 6 days
Lab note: jot down the number only; don't add units.

Query: Kp at 6 days; subject: CC(C)Oc1ccc(COc2ccc3c(c2)c(Cl)c2n3CC[C@@H]2CC(=O)O)cc1C(F)(F)F
1.61

###

target: Sphingosine 1-phosphate receptor 1 (Rattus norvegicus); experiment: Agonist activity at rat S1P1 receptor assessed as cAMP accumulation by HTRF assay
Sequence (P48303 whole entry): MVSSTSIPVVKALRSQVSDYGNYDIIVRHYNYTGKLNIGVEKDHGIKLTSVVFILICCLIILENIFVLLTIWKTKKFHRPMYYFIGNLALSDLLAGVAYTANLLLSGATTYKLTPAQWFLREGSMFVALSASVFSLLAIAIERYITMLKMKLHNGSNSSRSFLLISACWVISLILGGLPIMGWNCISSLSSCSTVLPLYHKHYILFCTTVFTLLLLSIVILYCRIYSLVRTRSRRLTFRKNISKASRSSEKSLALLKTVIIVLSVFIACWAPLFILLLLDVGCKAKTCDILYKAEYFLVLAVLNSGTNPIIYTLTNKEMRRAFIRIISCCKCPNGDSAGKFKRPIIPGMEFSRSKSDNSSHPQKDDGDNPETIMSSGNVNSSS
Below, each entry is listed with its recorded EC50.
Give the value, in units of nM, as a plain number.

Item: CC(C)Oc1ccc(COc2ccc3c(c2)c(Cl)c2n3CC[C@@H]2CC(=O)O)cc1C#N Test system: Sphingosine 1-phosphate receptor 1 (Rattus norvegicus) Read-out: EC50 Value: ?
0.072

# next compound below
Checklist item: EC50 tested on Sphingosine 1-phosphate receptor 1 (Rattus norvegicus), entry CC(C)Oc1ccc(COc2ccc3c(c2)c(Cl)c2n3CC[C@@H]2CC(=O)O)cc1C(F)(F)F , value?
0.05

###

Measured Emax values are reported for all entries that follow.
target: Sphingosine 1-phosphate receptor 1 (Homo sapiens); test: Agonist activity at human S1P1 receptor assessed as cAMP accumulation by HTRF assay relative to S1P; type: functional
Kindly provide the numeric value in % only, without the unit symbol.

Study these solved cases before continuing.
// query Emax value for entry O=C(O)CC1CCn2c1cc1cc(OCc3ccc(OCC4CC4)c(C(F)(F)F)c3)ccc12 (racemic)
100

Fill blank: measured Emax of the molecule N#Cc1ccc(COc2ccc3c(c2)cc2n3CCC2CC(=O)O)cc1C(F)(F)F (racemic) is ____.
104

Given the molecule O=C(O)CC1CCn2c1cc1cc(OCc3ccc(OCF)c(C(F)(F)F)c3)ccc12 (racemic) , what is its reported Emax?
119

***
Quick check: Emax of CC(C)Oc1ccc(COc2ccc3c(c2)cc2n3CCC2CC(=O)O)cc1C#N (racemic) ?
105

Requested read-out: Emax. Entry: O=C(O)CC1CCn2c1cc1cc(OCc3ccc(Cl)c(C(F)(F)F)c3)ccc12 (racemic)
116

###

target: Sphingosine 1-phosphate receptor 5 (Homo sapiens); test: Agonist activity at human S1P5 receptor by beta-arrestin recruitment assay relative to S1P
Sequence (Q9H228 whole entry): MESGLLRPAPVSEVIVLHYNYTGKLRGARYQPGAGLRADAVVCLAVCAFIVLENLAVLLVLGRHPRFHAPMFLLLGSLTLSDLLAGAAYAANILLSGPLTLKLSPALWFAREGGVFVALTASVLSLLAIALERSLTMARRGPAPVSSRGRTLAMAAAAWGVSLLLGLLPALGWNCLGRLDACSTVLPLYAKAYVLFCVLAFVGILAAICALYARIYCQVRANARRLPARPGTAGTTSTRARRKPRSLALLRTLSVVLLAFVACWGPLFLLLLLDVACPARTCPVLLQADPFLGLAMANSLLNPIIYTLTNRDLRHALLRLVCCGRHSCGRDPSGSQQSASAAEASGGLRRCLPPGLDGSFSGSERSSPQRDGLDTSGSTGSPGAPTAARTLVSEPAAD
Tick satisfied if Emax is 60% or greater. Tick not satisfied if Emax is less than 60%.

Determine whether measured Emax meets or exceeds 60% for CC(C)Oc1ccc(COc2ccc3c(c2)cc2n3CCC2CC(=O)O)cc1C#N (stereo in doubt; 19b)
satisfied

For this compound, is measured Emax 60% or higher? CC(C)Oc1ccc(COc2ccc3c(c2)c(Cl)c2n3CC[C@@H]2CC(=O)O)cc1C#N
satisfied

Tell me whether Emax is at least 60% here: CC(C)Oc1ccc(COc2ccc3c(c2)cc2n3CCC2CC(=O)O)cc1C#N (stereo in doubt; 19a)
not satisfied

# input for lookup
Is it the case that O=C(O)CC1CCn2c1cc1cc(OCc3ccc(C4CCCC4)c(C(F)(F)F)c3)ccc12 (stereo in doubt; 12a) has Emax reaching or exceeding 60%?
satisfied

###

assay: AUC (0 to infinity) in Sprague-Dawley rat at 1 mg/kg, iv or at 1 mg/kg, po; assay type: ADME, organism-based; settings: plasma
measured_endpoint: AUC(0-inf) (ng·h/mL)
Answer format: numeric, ng·h/mL implied, no suffix.

// worked examples, AUC(0-inf) included
AUC(0-inf) for O=C(O)CC1CCn2c1cc1cc(OCc3ccc(C4CCCC4)c(C(F)(F)F)c3)ccc12 (stereo in doubt; 12a) ?
5430

Report AUC(0-inf) for CC(C)Oc1ccc(COc2ccc3c(c2)c(Cl)c2n3CC[C@@H]2CC(=O)O)cc1C(F)(F)F please.
6160

// query AUC(0-inf) value for entry CC(C)Oc1ccc(COc2ccc3c(c2)cc2n3CCC2CC(=O)O)cc1C#N (stereo in doubt; 19a)
3990

---
Can you share its AUC(0-inf)? I mean this compound: CC(C)Oc1ccc(COc2ccc3c(c2)c(Cl)c2n3CC[C@@H]2CC(=O)O)cc1C#N
4210

###

target: Sphingosine-1-phosphate receptor 1 (Canis lupus familiaris); test: Agonist activity at dog S1P1 receptor assessed as cAMP accumulation by HTRF assay
Sequence (W5VNF7 whole entry): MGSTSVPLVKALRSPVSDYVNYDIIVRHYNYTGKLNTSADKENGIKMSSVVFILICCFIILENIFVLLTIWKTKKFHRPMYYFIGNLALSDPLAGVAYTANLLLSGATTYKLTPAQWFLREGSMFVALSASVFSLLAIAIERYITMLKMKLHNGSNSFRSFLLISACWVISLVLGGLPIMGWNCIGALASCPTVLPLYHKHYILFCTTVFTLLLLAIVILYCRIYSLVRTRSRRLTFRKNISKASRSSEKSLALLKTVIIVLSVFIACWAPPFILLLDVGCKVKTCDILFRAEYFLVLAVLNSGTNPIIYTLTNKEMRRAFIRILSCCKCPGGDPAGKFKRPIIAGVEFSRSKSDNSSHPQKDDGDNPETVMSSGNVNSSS
measured_endpoint: EC50 (nM)
Quick note: give the figure in nM, leave out the unit.

What measured EC50 goes with CC(C)Oc1ccc(COc2ccc3c(c2)c(Cl)c2n3CC[C@@H]2CC(=O)O)cc1C#N ?
0.049

Turning now to a further record.
Report EC50 for CC(C)Oc1ccc(COc2ccc3c(c2)c(Cl)c2n3CC[C@@H]2CC(=O)O)cc1C(F)(F)F please.
0.049

###

Reported Tmax by item:
test: Tmax in Sprague-Dawley rat at 1 mg/kg, po; assay type: ADME, organism-based; parameters: dose 1 mg/kg, route oral; conditions: in vivo
Give the value, in units of h, as a plain number.

Take a look at these entries with their results.
So what does the record say about Tmax for CC(C)Oc1ccc(COc2ccc3c(c2)c(Cl)c2n3CC[C@@H]2CC(=O)O)cc1C#N ?
4

Requested field: Tmax. Item: O=C(O)CC1CCn2c1cc1cc(OCc3ccc(C4CCCC4)c(C(F)(F)F)c3)ccc12 (stereo in doubt; 12a)
2.67

Item under review: CC(C)Oc1ccc(COc2ccc3c(c2)c(Cl)c2n3CC[C@@H]2CC(=O)O)cc1C(F)(F)F . Reported Tmax?
4.67

More entries:
Can you look up the measured Tmax of CC(C)Oc1ccc(COc2ccc3c(c2)cc2n3CCC2CC(=O)O)cc1C#N (stereo in doubt; 19a) for me?
2

###

test: Solubility in water in crystal phase; assay type: physicochemical
measured_endpoint: solubility

What does the data say about its solubility? Entry: CC(C)Oc1ccc(COc2ccc3c(c2)c(Cl)c2n3CC[C@@H]2CC(=O)O)cc1C(F)(F)F
< 1 µg/mL

###

experiment: Half life in human; assay type: ADME, organism-based; settings: in vivo
measured_endpoint: half-life (h)
Record the value in h, omitting the unit from your answer.

Given CCCCCCCCc1ccc(CCC(N)(CO)CO)cc1 [FINGOLIMOD] , state its recorded half-life.
89

###

molecular target: Sphingosine 1-phosphate receptor 1 (Homo sapiens); test: Agonist activity at human S1P1 receptor assessed as cAMP accumulation by HTRF assay relative to S1P; type: functional
Measured Emax by item
Numbers only; they are read as %.

Example entries begin here.
Bench note: what Emax did CC(C)Oc1ccc(COc2ccc3c(c2)cc2n3CCC2CC(=O)O)cc1C(F)(F)F (single isomer, unassigned; enantiomer 2) show?
116

Given the entry CC(C)Oc1ccc(COc2ccc3c(c2)cc2n3CCC2CC(=O)O)cc1C#N (stereo in doubt; 19a) , report its measured Emax.
98

For the molecule shown here, CC(C)Oc1ccc(COc2ccc3c(c2)cc2n3CCC2CC(=O)O)cc1C(F)(F)F (single isomer, unassigned; enantiomer 1) , give the reported Emax.
107

Attention now turns to another entry.
# input molecule: COc1ccc(COc2ccc3c(c2)cc2n3CCC2CC(=O)O)cc1C#N (racemic) ; wanted: its Emax
122

###

target: Sphingosine 1-phosphate receptor 1 (Homo sapiens, UniProt P21453); test: Agonist activity at human S1P1 receptor by beta-arrestin recruitment assay
Sequence (P21453 whole entry): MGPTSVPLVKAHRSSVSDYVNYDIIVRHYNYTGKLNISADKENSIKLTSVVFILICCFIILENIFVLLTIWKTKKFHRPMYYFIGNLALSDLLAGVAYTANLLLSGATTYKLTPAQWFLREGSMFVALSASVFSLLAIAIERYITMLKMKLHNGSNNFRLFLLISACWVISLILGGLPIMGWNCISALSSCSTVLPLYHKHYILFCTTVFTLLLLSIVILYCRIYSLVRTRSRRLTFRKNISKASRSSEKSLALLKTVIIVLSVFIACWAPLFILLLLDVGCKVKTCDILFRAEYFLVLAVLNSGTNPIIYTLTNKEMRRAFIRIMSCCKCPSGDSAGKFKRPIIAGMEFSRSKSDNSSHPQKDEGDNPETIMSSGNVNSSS
Reported EC50 is given for each of the following molecules.
Reply numerically in nM, unit not repeated.

Examples with their reported EC50 follow.
Entry O=C(O)CC1CCn2c1cc1cc(OCc3ccc(C4CCCC4)c(C(F)(F)F)c3)ccc12 (stereo in doubt; 12b) : reported EC50 = ?
20

Form field: reported EC50 of CC(C)Oc1ccc(COc2ccc3c(c2)cc2n3CCC2CC(=O)O)cc1C#N (stereo in doubt; 19a)
11

Look at this molecule and give its reported EC50. CC(C)Oc1ccc(COc2ccc3c(c2)c(Cl)c2n3CC[C@@H]2CC(=O)O)cc1C#N
0.63

Further cases:
Looking for the measured EC50 of CC(C)Oc1ccc(COc2ccc3c(c2)cc2n3CCC2CC(=O)O)cc1C(F)(F)F (single isomer, unassigned; enantiomer 2) , can you help?
40

Give the measured EC50 of CC(C)Oc1ccc(COc2ccc3c(c2)c(Cl)c2n3CC[C@@H]2CC(=O)O)cc1C(F)(F)F .
0.62

Consider the molecule shown here: O=C(O)CC1CCn2c1cc1cc(OCc3ccc(C4CCCC4)c(C(F)(F)F)c3)ccc12 (stereo in doubt; 12a) What is its recorded EC50?
2.5

Quick one: EC50 for CC(C)Oc1ccc(COc2ccc3c(c2)cc2n3CCC2CC(=O)O)cc1C(F)(F)F (single isomer, unassigned; enantiomer 1) ?
8.6

What measured EC50 goes with CC(C)Oc1ccc(COc2ccc3c(c2)cc2n3CCC2CC(=O)O)cc1C#N (stereo in doubt; 19b) ?
160
